Target: human uPAR (uPAR-Fc) (Homo sapiens, UniProt Q03405)
Construct: comprising amino acids Leu23-Arg303 according to UniProt entry Q03405.1; purchased R&D Systems 10378-UK-100
Sequence (Q03405 23-303): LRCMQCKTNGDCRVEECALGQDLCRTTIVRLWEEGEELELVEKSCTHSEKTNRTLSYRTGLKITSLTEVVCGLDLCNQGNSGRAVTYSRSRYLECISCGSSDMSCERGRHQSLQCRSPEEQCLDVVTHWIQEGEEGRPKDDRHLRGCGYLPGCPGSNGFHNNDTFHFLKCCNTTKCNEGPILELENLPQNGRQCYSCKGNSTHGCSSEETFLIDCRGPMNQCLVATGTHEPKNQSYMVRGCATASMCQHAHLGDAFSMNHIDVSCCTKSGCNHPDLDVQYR
Test: Surface plasmon resonance (SPR) assay, single cycle kinetics
Assay type: binding
Details: pKD category for uPAR SPR activity assay; uPAR-Fc on Protein A-Chip, 25°C; read-out: pKD CAT (converted)
Where a SMILES comes first, the peptide text is derived from it. Bridges are numbered along the chain shown (N, C = ends). [ ]: non-standard residue; d: D form. The star is where a group is joined. DOTA = O=C(O)CN1CCN(CC(=O)O)CCN(CC(=O)*)CCN(CC(=O)O)CC1; Pro(4R-NH2) = N[C@H]1CN[C@H](C(=O)O)C1; Hyp = O=C(O)[C@@H]1C[C@@H](O)CN1; Cit = NC(=O)NCCC[C@H](N)C(=O)O; Nva = CCC[C@H](N)C(=O)O; Pentanoyl = CCCCC(=O)*
Reported values of Kd for individual entries

CCCCC(=O)N[C@H]1CSSC[C@@H](C(=O)NCC(N)=O)NC(=O)[C@H](CCC)NC(=O)[C@H]([C@@H](C)CC)NC(=O)[C@@H]2C[C@@H](O)CN2C(=O)[C@@H]2CCCN2C(=O)[C@H](Cc2ccccc2)NC(=O)[C@H](Cc2ccc(O)cc2)NC(=O)[C@H](CCC(N)=O)NC(=O)[C@H](CCCNC(N)=O)NC1=O [UPAR-206] (Pentanoyl-C[Cit]QYFP[Hyp]I[Nva]CG-NH2; disulfide 1-10); 1.58 to 10 nM
CCCCC(=O)N[C@H]1CSSC[C@@H](C(N)=O)NC(=O)[C@H](CCC)NC(=O)[C@H]([C@@H](C)CC)NC(=O)[C@@H]2C[C@@H](O)CN2C(=O)[C@@H]2CCCN2C(=O)[C@H](Cc2ccccc2)NC(=O)[C@H](Cc2ccc(O)cc2)NC(=O)[C@H](CCCCNC(=O)CN2CCN(CC(=O)O)CCN(CC(=O)O)CCN(CC(=O)O)CC2)NC(=O)[C@H](CO)NC1=O [UPAR-342] (Pentanoyl-CSK(DOTA)YFP[Hyp]I[Nva]C-NH2; disulfide 1-10); < 1.58 nM

Moving on to the next molecule.
Q. Look up Kd for this molecule: CCCCC(=O)N[C@H]1CSSC[C@@H](C(N)=O)NC(=O)[C@H](CCC)NC(=O)[C@H]([C@@H](C)CC)NC(=O)[C@@H]2C[C@@H](N)CN2C(=O)[C@@H]2CCCN2C(=O)[C@H](Cc2ccccc2)NC(=O)[C@H](Cc2ccc(O)cc2)NC(=O)[C@H](CCCNC(=N)N)NC(=O)[C@H](CCCNC(=N)N)NC1=O [UPAR-313] (Pentanoyl-CRRYFP[Pro(4R-NH2)]I[Nva]C-NH2; disulfide 1-10)
A. < 1.58 nM

* * *

Molecular target: uPAR-expressing HEC-265 human endometrial adenocarcinoma cells (Homo sapiens)
Sequence (Q03405 23-335): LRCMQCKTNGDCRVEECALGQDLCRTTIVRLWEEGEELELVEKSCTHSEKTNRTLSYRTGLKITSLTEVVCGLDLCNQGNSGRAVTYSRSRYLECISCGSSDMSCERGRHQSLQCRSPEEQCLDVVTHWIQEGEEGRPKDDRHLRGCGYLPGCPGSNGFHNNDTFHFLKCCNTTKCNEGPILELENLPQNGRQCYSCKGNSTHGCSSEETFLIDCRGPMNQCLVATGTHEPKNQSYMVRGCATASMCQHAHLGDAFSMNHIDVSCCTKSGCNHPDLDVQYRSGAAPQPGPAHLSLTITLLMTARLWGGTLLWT
pIC50: −log10 of the molar value. Where a SMILES comes first, the peptide text is derived from it. Bridges are numbered along the chain shown (N, C = ends). [ ]: non-standard residue; d: D form. The star is where a group is joined. DOTA = O=C(O)CN1CCN(CC(=O)O)CCN(CC(=O)*)CCN(CC(=O)O)CC1; 2Nal = N[C@@H](Cc1ccc2ccccc2c1)C(=O)O; Hyp = O=C(O)[C@@H]1C[C@@H](O)CN1; Cit = NC(=O)NCCC[C@H](N)C(=O)O; Nva = CCC[C@H](N)C(=O)O; Pentanoyl = CCCCC(=O)*
Attribute: pIC50

CCCCC(=O)N[C@H]1CSSC[C@@H](C(N)=O)NC(=O)[C@H](CCC)NC(=O)[C@H]([C@@H](C)CC)NC(=O)[C@@H]2C[C@@H](O)CN2C(=O)[C@@H]2CCCN2C(=O)[C@H](Cc2ccccc2)NC(=O)[C@H](Cc2ccc3ccccc3c2)NC(=O)[C@H](CCC(N)=O)NC(=O)[C@H](CCCNC(=N)N)NC1=O [UPAR-259] (Pentanoyl-CRQ[2Nal]FP[Hyp]I[Nva]C-NH2; disulfide 1-10); ≥ 8.00
CCCCC(=O)N[C@H]1CSSC[C@@H](C(N)=O)NC(=O)[C@H](CCC)NC(=O)[C@H]([C@@H](C)CC)NC(=O)[C@@H]2C[C@@H](O)CN2C(=O)[C@@H]2CCCN2C(=O)[C@H](Cc2ccccc2)NC(=O)[C@H](Cc2ccc(O)cc2)NC(=O)[C@H](CCC(N)=O)NC(=O)[C@H](CC(C)C)NC1=O [UPAR-391] (Pentanoyl-CLQYFP[Hyp]I[Nva]C-NH2; disulfide 1-10); ≥ 8.00

Next, consider the following compound.
Q. Consider the compound shown here: CCCCC(=O)N[C@H]1CSSC[C@@H](C(N)=O)NC(=O)[C@H](CCC)NC(=O)[C@H]([C@@H](C)CC)NC(=O)[C@@H]2C[C@@H](O)CN2C(=O)[C@@H]2CCCN2C(=O)[C@H](Cc2ccccc2)NC(=O)[C@H](Cc2ccc(O)cc2)NC(=O)[C@H](CCCCNC(=O)CN2CCN(CC(=O)O)CCN(CC(=O)O)CCN(CC(=O)O)CC2)NC(=O)[C@H](CCCNC(N)=O)NC1=O [UPAR-261] (Pentanoyl-C[Cit]K(DOTA)YFP[Hyp]I[Nva]C-NH2; disulfide 1-10) What is its recorded pIC50?
A. ≥ 8.00
